Where do these numbers come from? They come from patent US20120029177A1.

# System: SNU-C4 xenografted nude mice
# TEST: Biodistribution study in SNU-C4 xenografted nude mice after intravenous injection
# Assay type: in vivo, mouse
# TEST_CONDITIONS: SNU-C4 tumor, 2 hr after intravenous injection
METRIC_NAME: % ID/g Tumor (% ID/g)

Use the examples below as a reference point.
MOLECULE: O=C([O-])CN1CCN(CC(=O)[O-])CCN(CC(=O)[O-])CC1.[68Ga+3] [^68Ga-NOTA, reference compound]
UNIT_DESCRIPTOR: % ID/g
% ID/g Tumor: 0.43

MOLECULE: O=C([O-])CN1CCNCCN(CC(=O)[O-])CCN(CC(=O)[O-])CC1.[68Ga+3] [^68Ga-DO3A, reference compound]
UNIT_DESCRIPTOR: % ID/g
% ID/g Tumor: 0.54

MOLECULE: NC(CNC(=O)CN1CCN(CC(=O)[O-])CCN(CC(=O)[O-])CC1)C(=O)[O-].[68Ga+3] (centres unmarked) [^68Ga-NOTA-ala]
UNIT_DESCRIPTOR: % ID/g
% ID/g Tumor: 0.61

MOLECULE: NC(CNC(=O)CN1CCN(CC(=O)[O-])CCN(CC(=O)[O-])CCN(CC(=O)[O-])CC1)C(=O)O.[68Ga+3] (centres unmarked) [^68Ga-DOTA-ala]
UNIT_DESCRIPTOR: % ID/g
% ID/g Tumor: 0.66

(a) O=C([O-])CN1CCN(CC(=O)[O-])CCN(CC(=O)O)CCN(CC(=O)[O-])CC1.[68Ga+3] [^68Ga-DOTA, reference compound]
(b) O=C([O-])CN1CCNCCN(CC(=O)[O-])CCNCC1.[68Ga+3] [^68Ga-DO2A, reference compound]
(c) N[C@@H](CN1CCN(CC(=O)[O-])CCN(CC(=O)[O-])CCN(CC(=O)[O-])CC1)C(=O)O.[68Ga+3] (stereo in doubt) [^68Ga-DO3A-ala]
(d) NC(CN1CCN(CC(=O)[O-])CCNCCN(CC(=O)[O-])CC1)C(=O)[O-].[68Ga+3] (centres unmarked) [^68Ga-DO2A-ala]
**Query** Ascending sort, % ID/g Tumor. Give me the labels in the order the question wants.
**Result** a, b, d, c

----------
# Tested on: SNU-C4 xenografted nude mice
# TEST: Biodistribution study in SNU-C4 xenografted nude mice after intravenous injection
# Assay type: in vivo, mouse
# TEST_CONDITIONS: muscle, 30 min after intravenous injection
METRIC_NAME: % ID/g Muscle (% ID/g)

Below, 4 molecules whose answers are already recorded.
MOLECULE: N[C@@H](CN1CCN(CC(=O)[O-])CCN(CC(=O)[O-])CCN(CC(=O)[O-])CC1)C(=O)O.[68Ga+3] (stereo in doubt) [^68Ga-DO3A-ala]
TARGET_SYSTEM: SNU-C4 xenografted nude mice
UNIT_DESCRIPTOR: % ID/g
% ID/g Muscle: 2.03
//
MOLECULE: O=C([O-])CN1CCN(CC(=O)[O-])CCN(CC(=O)[O-])CC1.[68Ga+3] [^68Ga-NOTA, reference compound]
TARGET_SYSTEM: SNU-C4 xenografted nude mice
UNIT_DESCRIPTOR: % ID/g
% ID/g Muscle: 0.77
//
MOLECULE: O=C([O-])CN1CCN(CC(=O)[O-])CCN(CC(=O)O)CCN(CC(=O)[O-])CC1.[68Ga+3] [^68Ga-DOTA, reference compound]
TARGET_SYSTEM: SNU-C4 xenografted nude mice
UNIT_DESCRIPTOR: % ID/g
% ID/g Muscle: 0.70
//
MOLECULE: NC(CNC(=O)CN1CCN(CC(=O)[O-])CCN(CC(=O)[O-])CCN(CC(=O)[O-])CC1)C(=O)O.[68Ga+3] (centres unmarked) [^68Ga-DOTA-ala]
TARGET_SYSTEM: SNU-C4 xenografted nude mice
UNIT_DESCRIPTOR: % ID/g
% ID/g Muscle: 0.90

(I) NC(CNC(=O)CN1CCN(CC(=O)[O-])CCN(CC(=O)[O-])CC1)C(=O)[O-].[68Ga+3] (centres unmarked) [^68Ga-NOTA-ala]
(II) NC(CN1CCN(CC(=O)[O-])CCNCCN(CC(=O)[O-])CC1)C(=O)[O-].[68Ga+3] (centres unmarked) [^68Ga-DO2A-ala]
**Query** // pick min by % ID/g Muscle: I , II Answer by stating the label of the chosen item.
**Result** I
(I: 0.87 % ID/g, II: 1.81 % ID/g)

(a) O=C([O-])CN1CCNCCN(CC(=O)[O-])CCN(CC(=O)[O-])CC1.[68Ga+3] [^68Ga-DO3A, reference compound]
(b) O=C([O-])CN1CCNCCN(CC(=O)[O-])CCNCC1.[68Ga+3] [^68Ga-DO2A, reference compound]
**Query** Given the two records a and b , choose the one whose % ID/g Muscle value is lower. Choose, then provide that item's label.
**Result** a
